- Test system: Streptococcus suis P1/7
- measurement_notes: percent growth relative to DMSO control; higher = less growth inhibition
- stated_conditions: 10 µM; incubation time 18 h
Quick rule: percent growth of at least 70% means true, below that means false.

{"compound": "COc1ccc2nccc(NC(=O)C3CCN(CCc4ccc(Cl)cc4)CC3)c2n1", "system": "Streptococcus suis P1/7", "group_label": "false"}
{"compound": "CO[C@@H](C(=O)N1Cc2[nH]nc(NC(=O)c3ccc(N4CCN(C)CC4)cc3)c2C1)c1ccccc1", "system": "Streptococcus suis P1/7", "group_label": "true"}
{"compound": "O=C(Nc1nnc(-c2ccc(Cl)cc2)o1)c1cccc(C(F)(F)F)c1", "system": "Streptococcus suis P1/7", "group_label": "false"}
{"compound": "O=C(Nc1ccc(N2CCNCC2)nc1)c1oc(-c2ccccc2)nc1C(F)(F)F", "system": "Streptococcus suis P1/7", "group_label": "false"}
{"compound": "Nc1ncc(-c2ccc(C(F)(F)F)nc2)cc1-c1ccc(C(F)(F)F)nc1", "system": "Streptococcus suis P1/7", "group_label": "true"}
{"compound": "CNc1cc(C)nc(C2CN(C(=O)c3n[nH]c4ccccc34)CCO2)c1 (stereo unspecified)", "system": "Streptococcus suis P1/7", "group_label": "true"}
{"compound": "c1cc(C2=NCCN2)cc(-c2cc(-c3ccc(C4=NCCN4)cc3)no2)c1", "system": "Streptococcus suis P1/7", "group_label": "true"}
{"compound": "COc1ccc(N(CCc2cccc(C)n2)C(C)=O)cc1", "system": "Streptococcus suis P1/7", "group_label": "false"}
{"compound": "CCc1ccc(S(=O)(=O)Nc2cc(CN3CCN(CCC(C)C)CC3)ccc2C)cc1", "system": "Streptococcus suis P1/7", "group_label": "true"}
{"compound": "CC(C)(C)OC(=O)N1CCC(Cn2nc(-c3cnc4ccccc4c3)c3c(N)ncnc32)CC1", "system": "Streptococcus suis P1/7", "group_label": "true"}

INPUT: Textbook exercise: given the entry CC(=O)NCC1CN(c2ccc(-c3ccc(CO)cc3)c(F)c2)C(=O)O1 (stereo unspecified) , state whether its percent growth is greater than or equal to 70%.
OUTPUT: false

INPUT: Tell me whether percent growth is at least 70% here: CC1CCCCN1C(=O)NCCc1coc(-c2ccc(F)cc2)n1 (stereo unspecified)
OUTPUT: true

INPUT: Can CC(C)n1ncc2c(C(=O)NCC(c3cccs3)N3CCOCC3)cc(-c3ccccc3)nc21 (stereo unspecified) be said to have percent growth at or above 70%?
OUTPUT: true

INPUT: Threshold query (percent growth >= 70%) on "CCN(CC)S(=O)(=O)c1ccc(C(=O)Nc2cc(C)nn2-c2nc(C)c(C)c(=O)[nH]2)cc1"
OUTPUT: false

INPUT: I'd appreciate it if you could say whether NCCC(O)C(=O)N[C@@H]1C[C@H](N)[C@@H](OC2O[C@H](CN)[C@@H](O)[C@H](O)[C@H]2O)[C@H](O)C1OC1O[C@H](CO)[C@@H](O)[C@H](N)[C@H]1O (stereo partly specified) has percent growth at least equal to 70%.
OUTPUT: true

INPUT: Identify whether the reported percent growth of the following compound is 70% or greater: "N#Cc1nc(-c2ccccc2)oc1S(=O)(=O)c1ccc(Cl)cc1"
OUTPUT: true

INPUT: Dear colleague, could you confirm whether "CCc1ccc([C@@H]2C[C@H](C(F)(F)F)n3ncc(C(=O)NCc4ccc(OC)cc4)c3N2)cc1" has percent growth at or above 70%?
OUTPUT: true

INPUT: Say whether "O=C(OCc1ccccc1)N1CCC(c2cc(-c3ccncc3)c(-c3ccc(F)cc3)[nH]2)CC1" shows percent growth of 70% or more.
OUTPUT: true

INPUT: Determine whether this compound has percent growth no lower than 70%: NCCCC(N)(C(=O)O)C(F)F (stereo unspecified)
OUTPUT: true

INPUT: Textbook exercise: given the entry "N=C(N)Nc1ccc(-c2ccc(-c3ccc(NC(=N)N)cc3Cl)o2)c(Cl)c1" , state whether its percent growth is greater than or equal to 70%.
OUTPUT: false

INPUT: Is the recorded value of percent growth equal to or greater than 70% for this compound? "c1csc(-c2cnc3sc(NCC4CCOCC4)nn23)c1"
OUTPUT: true

INPUT: Quick check, percent growth >= 70%? "COc1ccc(-c2cnc3cnc(-c4cccc(OC(C)C)c4)cn23)cc1"
OUTPUT: false

INPUT: For this compound, is measured percent growth 70% or higher? "O=C(c1ccco1)N(CCCn1ccnc1)c1nc2c(Cl)cccc2s1"
OUTPUT: false

INPUT: Form field: percent growth at least 70%? Entry: c1ccc(-c2[nH]c3ccccc3c2C(c2ccccn2)N2CCCC2)cc1 (stereo unspecified)
OUTPUT: true
